Source of measurements: paper PMC10815964

biological target: HiDapE (Haemophilus influenzae); experiment: DapE inhibition, ninhydrin-based assay; assay type: biochemical; details: 100 µM inhibitor, read-out: DapE % Inhib at 100 µM
quantity_measured: inhibition at 100 µM (%)
One number for each entry, in %.

So what does the record say about inhibition at 100 µM for O=C(Cc1ccc(Br)cc1)NC1CCC1=O (centres unmarked) ?
59

Fill in inhibition at 100 µM for each of the 2 molecules listed.
1. O=C(NC1CCC1=O)c1cncc(Br)c1 (centres unmarked) [3o, 5-Bromo-N-(2-oxocyclobutyl)nicotinamide]
2. O=C(NC1CCC1=O)c1ccccc1O (centres unmarked) [3i, 2-Hydroxy-N-(2-oxocyclobutyl)benzamide]

[34.6, 28.9]

---

Kindly supply the reported melting point values for the records listed here.

# get_value(readout='melting point', item= COc1ccc(C(=O)NC2CCC2=O)c(O)c1 (stereo not shown) [3j] )
131 to 133 °C

Fill in the blank: the reported melting point of CC(C)[C@@H](NS(=O)(=O)c1ccc(C#N)cc1)C(=O)NC1CCC1=O (mixture of isomers) [3aa] is ____.
150 to 151 °C

May I ask what melting point has been recorded for O=C(NC1CCC1=O)c1ccccn1 (stereo not shown) [3l, N-(2-Oxocyclobutyl)picolinamide] ?
97 to 99 °C

Fill in melting point for each of the 3 compounds listed.
1. O=C(CCc1nc2ccccc2[nH]1)NC1CCC1=O (stereo not shown) [3u]
2. O=C(NC1CCC1=O)c1ccccc1Cl (stereo not shown) [3d, 2-Chloro-N-(2-oxocyclobutyl)benzamide]
3. O=C(NC1CCC1=O)c1cncc(Br)c1 (stereo not shown) [3o, 5-Bromo-N-(2-oxocyclobutyl)nicotinamide]

["179 to 181 °C", "102 to 103 °C", "114 to 115 °C"]

---

biological target: UniProtKB P44514
quantity_measured: IC50 (µM)
Give bare numbers, in µM.

Entry under review: COc1cc(C(=O)NC2CCC2=O)cc(OC)c1OC (stereo not drawn) . Reported IC50?
39.6

Record request: IC50 value, item COc1ccc(S(=O)(=O)N[C@@H](C(=O)NC2CCC2=O)C(C)C)cc1 (mixture of isomers)
23.1

For the compound COc1ccc(C(=O)NC2CCC2=O)c(O)c1 (stereo not drawn) , what IC50 is on record?
66.4

Fill in the blank: the reported IC50 of O=C(N[C@@H](Cc1ccccc1)C(=O)NC1CCC1=O)OCc1ccccc1 (mixture of isomers) is ____.
69.8

Consider the compound O=C(CCc1nc2ccccc2[nH]1)NC1CCC1=O (stereo not drawn) and give its measured IC50.
52.4

Batch: IC50 for all items listed.
1. O=C(N[C@H](Cc1ccccc1)C(=O)NC1CCC1=O)OCc1ccccc1 (mixture of isomers)
2. O=C1CCC1NS(=O)(=O)c1ccc(F)cc1 (stereo not drawn)
3. Cc1ccc(S(=O)(=O)N[C@@H](Cc2ccccc2)C(=O)NC2CCC2=O)cc1 (mixture of isomers)

55.4
53.3
45.7

---

target: H. influenzae DapE (HiDapE) (Haemophilus influenzae)
Sequence (P44514 whole entry): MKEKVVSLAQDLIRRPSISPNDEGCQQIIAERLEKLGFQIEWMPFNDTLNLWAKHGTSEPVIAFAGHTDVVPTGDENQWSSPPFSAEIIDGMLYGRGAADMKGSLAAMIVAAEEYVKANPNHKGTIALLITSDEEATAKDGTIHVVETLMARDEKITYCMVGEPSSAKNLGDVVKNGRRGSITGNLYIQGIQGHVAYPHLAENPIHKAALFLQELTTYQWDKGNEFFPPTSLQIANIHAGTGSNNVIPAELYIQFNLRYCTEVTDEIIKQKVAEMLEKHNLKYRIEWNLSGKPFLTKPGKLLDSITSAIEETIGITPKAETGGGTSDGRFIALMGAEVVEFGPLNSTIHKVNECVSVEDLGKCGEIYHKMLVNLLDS
quantity_measured: pKi
One number for each entry, as −log10 of the molar value.

Entry COc1ccc(S(=O)(=O)N[C@@H](C(=O)NC2CCC2=O)C(C)C)cc1 (mixture of isomers) : reported pKi = ?
4.99

---

What melting point was measured for each of the following?

Hi! Can you tell me melting point for each of these molecules?
1. CC(C)[C@@H](NS(=O)(=O)c1ccc(O)cc1)C(=O)NC1CCC1=O (mixture of isomers)
2. COC(=O)c1ccc(S(=O)(=O)N[C@@H](C(=O)NC2CCC2=O)C(C)C)cc1 (mixture of isomers)
3. COc1cc(Cl)c(C(=O)NC2CCC2=O)cc1OC (stereo not shown)
4. COc1ccc(C(=O)NC2CCC2=O)cc1Cl (stereo not shown)
5. COc1ccc(S(=O)(=O)N[C@@H](C(=O)NC2CCC2=O)C(C)C)cc1 (mixture of isomers)
6. O=C(NC1CCC1=O)c1cccc(Cl)c1 (stereo not shown) [3e, 3-Chloro-N-(2-oxocyclobutyl)benzamide]
7. O=C(NC1CCC1=O)c1cccc2cccnc12 (stereo not shown)

139 to 141 °C
190 to 191 °C
123 to 125 °C
134 to 136 °C
179 to 181 °C
64 to 66 °C
89 to 91 °C

---

So I've got a bunch of compounds here, and I need their inhibition at 100 µM values.
biological target: HiDapE (Haemophilus influenzae, UniProt P44514); experiment: DapE inhibition, ninhydrin-based assay; assay type: biochemical; settings: 100 µM inhibitor, read-out: DapE % Inhib at 100 µM
Sequence (P44514 whole entry): as above
One number for each entry, in %.

Worked cases, answers included:
Notebook: pull reported inhibition at 100 µM for HiDapE (Haemophilus influenzae, UniProt P44514), entry Cc1ccccc1C(=O)NC1CCC1=O (centres unmarked) [3a, 2-Methyl-N-(2-oxocyclobutyl)benzamide]
16.8

Test system HiDapE (Haemophilus influenzae, UniProt P44514); read-out inhibition at 100 µM; what value for CC(C)[C@@H](NS(=O)(=O)c1ccc(O)cc1)C(=O)NC1CCC1=O (mixture of isomers) ?
44.4

Give recorded inhibition at 100 µM with HiDapE (Haemophilus influenzae, UniProt P44514) for the following compound: Cc1cccc(C(=O)NC2CCC2=O)c1 (centres unmarked) [3b, 3-Methyl-N-(2-oxocyclobutyl)benzamide]
37.8

HiDapE (Haemophilus influenzae, UniProt P44514) / inhibition at 100 µM / O=C(NC1CCC1=O)c1ccccc1Cl (centres unmarked) [3d, 2-Chloro-N-(2-oxocyclobutyl)benzamide] : value?
33.6

What value of inhibition at 100 µM on HiDapE (Haemophilus influenzae, UniProt P44514) does COc1ccc(C(=O)NC2CCC2=O)cc1Cl (centres unmarked) have?
29.1

Hello, I am looking for reported inhibition at 100 µM with HiDapE (Haemophilus influenzae, UniProt P44514) for CC(C)[C@@H](NS(=O)(=O)c1ccc(C#N)cc1)C(=O)NC1CCC1=O (mixture of isomers) . Could you help?
5.6

// batch mode: one inhibition at 100 µM value per listed entry
1. COc1ccc(S(=O)(=O)N[C@H](C(=O)NC2CCC2=O)C(C)C)cc1 (mixture of isomers)
2. O=C(NC1CCC1=O)c1cccnc1 (centres unmarked) [3m, N-(2-Oxocyclobutyl)nicotinamide]
3. COc1cc(C(=O)NC2CCC2=O)cc(OC)c1OC (centres unmarked)
4. O=C1CCC1NS(=O)(=O)c1ccc(F)cc1 (centres unmarked)
5. Cc1ccc(S(=O)(=O)N[C@@H](Cc2ccccc2)C(=O)NC2CCC2=O)cc1 (mixture of isomers)
6. O=C(N[C@@H](Cc1ccc(O)cc1)C(=O)NC1CCC1=O)OCc1ccccc1 (mixture of isomers)

1: 30.7; 2: 24.9; 3: 93.7; 4: 72.9; 5: 92.8; 6: 15.5

Dear colleague, could you send me inhibition at 100 µM for each of the items below? Thanks.
1. COc1ccc(S(=O)(=O)N[C@@H](C(=O)NC2CCC2=O)C(C)C)cc1 (mixture of isomers)
2. O=C(NC1CCC1=O)c1ccccn1 (centres unmarked) [3l, N-(2-Oxocyclobutyl)picolinamide]
3. O=C(NC1CCC1=O)c1ccc(Br)cc1 (centres unmarked) [3f, 4-Bromo-N-(2-oxocyclobutyl)benzamide]

1: 99.7; 2: 25.6; 3: 25.2

// input: 2 compounds below; output: inhibition at 100 µM for each
1. Cc1ccc(S(=O)(=O)N[C@@H](Cc2c[nH]c3ccccc23)C(=O)NC2CCC2=O)cc1 (mixture of isomers)
2. COc1cc(Cl)c(C(=O)NC2CCC2=O)cc1OC (centres unmarked)

19.6
24.4

---

molecular target: HiDapE (Haemophilus influenzae, UniProt P44514); assay: DapE inhibition, ninhydrin-based assay; assay type: biochemical; conditions: 100 µM inhibitor, read-out: DapE % Inhib at 100 µM
quantity_measured: inhibition at 100 µM (%)
Numbers only, in %.

Could I get inhibition at 100 µM for every one of these entries?
1. Cc1ccc(S(=O)(=O)N[C@H](Cc2ccccc2)C(=O)NC2CCC2=O)cc1 (mixture of isomers)
2. O=C(NC1CCC1=O)c1cccc(Cl)c1 (stereo not shown) [3e, 3-Chloro-N-(2-oxocyclobutyl)benzamide]
3. O=C(N[C@@H](Cc1ccccc1)C(=O)NC1CCC1=O)OCc1ccccc1 (mixture of isomers)
4. COC(=O)c1ccc(S(=O)(=O)N[C@@H](C(=O)NC2CCC2=O)C(C)C)cc1 (mixture of isomers)

1: 55; 2: 45.8; 3: 96.2; 4: 10.7

---

For each of the compounds below, state its melting point.

Record melting point for all entries; do not skip any.
1. O=C(NC1CCC1=O)c1cnc2ccccc2c1 (stereo not shown)
2. O=C(Cc1ccc(Br)cc1)NC1CCC1=O (stereo not shown)
3. O=C1CCC1NS(=O)(=O)c1ccc(C(F)(F)F)cc1 (stereo not shown)

155 to 156 °C
124 to 127 °C
74 to 76 °C

Requested field: melting point. Item: O=C(NC1CCC1=O)c1cccnc1Cl (stereo not shown) [3n, 2-Chloro-N-(2-oxocyclobutyl)nicotinamide]
80 to 82 °C
